Measured values drawn from paper PMC6201908 for this set.

Intracellular Ca^2+ % Max by entry:
measurement target: human recombinant NK1 receptors (Homo sapiens)
Sequence (P25103 whole entry): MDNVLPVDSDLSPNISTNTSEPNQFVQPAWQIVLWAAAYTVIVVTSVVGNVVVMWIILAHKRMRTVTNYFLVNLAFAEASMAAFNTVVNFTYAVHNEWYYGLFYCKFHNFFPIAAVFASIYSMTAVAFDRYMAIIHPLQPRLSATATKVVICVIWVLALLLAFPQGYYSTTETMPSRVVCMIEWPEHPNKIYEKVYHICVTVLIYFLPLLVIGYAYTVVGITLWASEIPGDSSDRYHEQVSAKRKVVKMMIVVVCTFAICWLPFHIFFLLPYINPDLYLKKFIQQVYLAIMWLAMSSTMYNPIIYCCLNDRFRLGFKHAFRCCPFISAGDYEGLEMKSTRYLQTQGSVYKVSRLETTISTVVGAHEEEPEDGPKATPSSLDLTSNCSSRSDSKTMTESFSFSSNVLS
assay: cell-based
Non-standard residues stand in square brackets, D forms with d. Residues, ends and D or L forms follow the SMILES beside them. βAla = NCCC(=O)O
Return type: number; implicit unit %.

CCCC[C@H](NC(=O)[C@H](CC(C)C)N(C)C(=O)CNC(=O)[C@@H](NC(=O)[C@H](Cc1ccccc1)NC(=O)[C@H](CCCCN)NC(=O)[C@@H](N)CC(=O)O)C(C)C)C(N)=O [[Lys^5,MeLeu^9,Nle^10]-NKA(4-10), Asp-Lys-Phe-Val-Gly-Leu(NMe)-Nle-NH2]    107.6

Here is another compound to look at.
Kindly indicate its recorded Intracellular Ca^2+ % Max. Item: CSCC[C@H](NC(=O)[C@H](CC(C)C)NC(=O)CCNC(=O)[C@@H](NC(=O)[C@H](Cc1ccccc1)NC(=O)[C@H](CCCCN)NC(=O)[C@@H](N)CC(=O)O)C(C)C)C(N)=O [[Lys^5,β-Ala^8]-NKA(4–10), Asp-Lys-Phe-Val-[β-Ala]-Leu-Met-NH2] (H-DKFV[βAla]LM-NH2) 105.8

* * *

measurement target: human recombinant NK1 receptors (Homo sapiens)
assay: cell-based
test conditions: Intracellular Ca^2+ pEC50, CHO-hNK1 cells; mean ± SD
Non-standard residues stand in square brackets, D forms with d. Residues, ends and D or L forms follow the SMILES beside them. Nle = CCCC[C@H](N)C(=O)O; βAla = NCCC(=O)O
log10 of EC50 by entry:
Values reflect log10 of reported EC50 (nM).

CCCC[C@H](NC(=O)[C@H](CC(C)C)NC(=O)CNC(=O)[C@@H](NC(=O)[C@H](Cc1ccccc1)NC(=O)[C@H](CCCNC(=N)N)NC(=O)[C@@H](N)CC(=O)O)C(C)C)C(N)=O [[Arg^5,Nle^10]-NKA(4–10), Asp-Arg-Phe-Val-Gly-Leu-Nle-NH2] (H-DRFVGL[Nle]-NH2)    0.23
CSCC[C@H](NC(=O)[C@H](CC(C)C)NC(=O)CCNC(=O)[C@@H](NC(=O)[C@H](Cc1ccccc1)NC(=O)[C@H](CO)NC(=O)[C@@H](N)CC(=O)O)C(C)C)C(N)=O [[β-Ala^8]-NKA(4–10), Asp-Ser-Phe-Val-[β-Ala]-Leu-Met-NH2] (H-DSFV[βAla]LM-NH2)    1.67
CSCC[C@H](NC(=O)[C@H](CC(C)C)NC(=O)CCNC(=O)[C@@H](NC(=O)[C@H](Cc1ccccc1)NC(=O)[C@H](CCCNC(=N)N)NC(=O)[C@@H](N)CC(=O)O)C(C)C)C(N)=O [[Arg^5,β-Ala^8]-NKA(4–10), Asp-Arg-Phe-Val-[β-Ala]-Leu-Met-NH2] (H-DRFV[βAla]LM-NH2)    0.26

Kindly indicate its recorded log10 of EC50. Item: CSCC[C@H](NC(=O)[C@H](CC(C)C)NC(=O)CCNC(=O)[C@@H](NC(=O)[C@H](Cc1ccccc1)NC(=O)[C@H](CCCCN)NC(=O)[C@@H](N)CC(=O)O)C(C)C)C(N)=O [[Lys^5,β-Ala^8]-NKA(4–10), Asp-Lys-Phe-Val-[β-Ala]-Leu-Met-NH2] (H-DKFV[βAla]LM-NH2) 0.80

Kindly indicate its recorded log10 of EC50. Item: CSCC[C@H](NC(=O)[C@H](CC(C)C)NC(=O)CNC(=O)[C@@H](NC(=O)[C@H](Cc1ccccc1)NC(=O)[C@H](CCCNC(=N)N)NC(=O)[C@@H](N)CC(=O)O)C(C)C)C(N)=O [[Arg^5]-NKA(4–10), Asp-Arg-Phe-Val-Gly-Leu-Met-NH2] (H-DRFVGLM-NH2) -0.81

Kindly indicate its recorded log10 of EC50. Item: CCCC[C@H](NC(=O)[C@H](CC(C)C)NC(=O)CNC(=O)[C@@H](NC(=O)[C@H](Cc1ccccc1)NC(=O)[C@H](CCCCN)NC(=O)[C@@H](N)CC(=O)O)C(C)C)C(N)=O [[Lys^5,Nle^10]-NKA(4–10), Asp-Lys-Phe-Val-Gly-Leu-Nle-NH2] 0.37

Kindly indicate its recorded log10 of EC50. Item: CSCC[C@H](NC(=O)[C@H](CC(C)C)NC(=O)CNC(=O)[C@@H](NC(=O)[C@H](Cc1ccccc1)NC(=O)[C@H](CCCCN)NC(=O)[C@@H](N)CC(=O)O)C(C)C)C(N)=O [[Lys^5]-NKA(4–10), Asp-Lys-Phe-Val-Gly-Leu-Met-NH2] -0.38
